# Test system: Staphylococcus aureus MSSA (Newman)
# experiment: broth microdilution MIC assay, Staphylococcus aureus MSSA (Newman)
# Type: cell-based
# applied-conditions: MIC100 class score, broth microdilution, 24 h
# reported Antibacterial activity Staphylococcus aureus (MSSA); entries follow

Below are worked cases with known answers.
[[record]]
smi = "FC(F)(F)Oc1ccccc1-c1ccc(-c2nc(-c3ccc(Cl)cc3Cl)c[nH]2)o1"
reported_value = "2 (MIC100 of 11-201 μg/ml)"

[[record]]
smi = "Cc1nc(-c2ccc(-c3cccc(OC(F)(F)F)c3)o2)[nH]c1-c1ccc(F)cc1"
reported_value = "3 (MIC100 of 3-10 μg/ml)"

[[record]]
smi = "Cc1[nH]c(-c2ccc(-c3ccc(OC(F)(F)F)cc3Cl)o2)nc1-c1ccc(F)cc1"
reported_value = "2 (MIC100 of 11-201 μg/ml)"

[[record]]
smi = "Cc1[nH]c(-c2ccn(-c3ccccc3C(F)(F)F)c2)nc1-c1ccccc1"
reported_value = "3 (MIC100 of 3-10 μg/ml)"


Field Antibacterial activity Staphylococcus aureus (MSSA) (entry `Cc1[nH]c(-c2ccc(-c3ccccc3OC(F)(F)F)o2)nc1Cc1ccc(Br)cc1` ) reads 3 (MIC100 of 3-10 μg/ml)

Field Antibacterial activity Staphylococcus aureus (MSSA) (entry `Cc1[nH]c(-c2ccc(-c3ccccc3OC(F)(F)F)o2)nc1-c1ccc(O)cc1` ) reads 3 (MIC100 of 3-10 μg/ml)

Field Antibacterial activity Staphylococcus aureus (MSSA) (entry `Cc1ccccc1-c1cnc(-c2ccc(-c3ccccc3C(F)(F)F)o2)[nH]1` ) reads 3 (MIC100 of 3-10 μg/ml)

Field Antibacterial activity Staphylococcus aureus (MSSA) (entry `Cc1nc(-c2ccc(-c3ccc(O)cc3F)o2)[nH]c1-c1ccc(O)cc1` ) reads 2 (MIC100 of 11-201 μg/ml)

Field Antibacterial activity Staphylococcus aureus (MSSA) (entry `FC(F)(F)c1ccccc1-c1ccc(-c2nc(Cl)c(-c3ccccc3)[nH]2)o1` ) reads 2 (MIC100 of 11-201 μg/ml)

Field Antibacterial activity Staphylococcus aureus (MSSA) (entry `Cc1nc(-c2ccc(-c3ccccc3OC(F)(F)F)o2)[nH]c1-c1ccc(Br)cc1` ) reads 3 (MIC100 of 3-10 μg/ml)

Field Antibacterial activity Staphylococcus aureus (MSSA) (entry `Cc1[nH]c(-c2ccc(-c3ccc(C(F)(F)F)c(Cl)c3)o2)nc1-c1ccc(F)cc1` ) reads 3 (MIC100 of 3-10 μg/ml)

Field Antibacterial activity Staphylococcus aureus (MSSA) (entry `Cc1nc(-c2ccc(-c3ccc(Cl)c(OC(F)(F)F)c3)o2)[nH]c1-c1ccc(F)cc1` ) reads 3 (MIC100 of 3-10 μg/ml)

Field Antibacterial activity Staphylococcus aureus (MSSA) (entry `Cc1[nH]c(-c2ccc(-c3ccccc3OC(F)(F)F)o2)nc1-c1ccc(F)cc1` ) reads 3 (MIC100 of 3-10 μg/ml)

Field Antibacterial activity Staphylococcus aureus (MSSA) (entry `FC(F)(F)Oc1ccccc1-c1ccc(-c2nc(Cl)c(-c3ccccc3)[nH]2)o1` ) reads 2 (MIC100 of 11-201 μg/ml)

Field Antibacterial activity Staphylococcus aureus (MSSA) (entry `Cc1[nH]c(-c2ccc(-c3ccccc3C(F)(F)F)o2)nc1-c1cccc(Cl)c1` ) reads 2 (MIC100 of 11-201 μg/ml)

Field Antibacterial activity Staphylococcus aureus (MSSA) (entry `FC(F)(F)Oc1ccccc1-c1ccc(-c2ncc(-c3ccccc3)[nH]2)o1` ) reads 3 (MIC100 of 3-10 μg/ml)

Field Antibacterial activity Staphylococcus aureus (MSSA) (entry `Cc1[nH]c(-c2ccc(-c3ccccc3F)o2)nc1-c1ccc(O)cc1` ) reads 3 (MIC100 of 3-10 μg/ml)

* * *

Here we list compounds with their recorded MIC when tested on Staphylococcus epidermidis (PCI 1200, ATCC12228).

Below are worked cases with known answers.
[[record]]
compound = "Cc1nc(-c2ccc(-c3ccc(Cl)cc3Cl)o2)[nH]c1-c1ccc(F)cc1 [Compound 16]"
property = "MIC"
reported_value = "3 to 10 µg/mL"

[[record]]
compound = "Cc1nc(-c2ccc(-c3ccc(Cl)cc3)o2)[nH]c1-c1ccccc1 [Compound 5]"
property = "MIC"
reported_value = "3 to 10 µg/mL"


Reported Staphylococcus epidermidis (PCI 1200, ATCC12228) MIC for item Cc1nc(-c2ccc(-c3ccc(Cl)c(OC(F)(F)F)c3)o2)[nH]c1-c1ccc(Cl)cc1 [Compound 44] was 11 to 201 µg/mL

Reported Staphylococcus epidermidis (PCI 1200, ATCC12228) MIC for item FC(F)(F)Oc1ccccc1-c1ccc(-c2ncc(-c3ccccc3)[nH]2)o1 [Compound 63] was 3 to 10 µg/mL

Reported Staphylococcus epidermidis (PCI 1200, ATCC12228) MIC for item Cc1[nH]c(-c2ccc(-c3cccc(C(F)(F)F)c3)o2)nc1-c1ccc(F)cc1 [Compound 38] was 3 to 10 µg/mL

* * *

# System: Human hepatocytes (HepaRG cells)
# experiment: human cytotoxicity assay in vitro (CellTiter-Glo), hepatocytes
# Type: cell-based
# applied-conditions: cytotoxicity class
property: cytotoxicity cell line H (hepatocytes)
Field format: numeric only.

Below are worked cases with known answers.
[[record]]
molecule = "Cc1[nH]c(-c2ccc(-c3ccc(C(F)(F)F)c(Cl)c3)o2)nc1-c1ccc(F)cc1"
property = "cytotoxicity cell line H (hepatocytes)"
reported_value = 3

[[record]]
molecule = "Cc1nc(-c2ccc(-c3ccc(Cl)cc3Cl)o2)[nH]c1-c1ccc(F)cc1"
property = "cytotoxicity cell line H (hepatocytes)"
reported_value = 3

[[record]]
molecule = "Cc1nc(-c2ccc(-c3ccc(Cl)c(OC(F)(F)F)c3)o2)[nH]c1-c1ccccc1"
property = "cytotoxicity cell line H (hepatocytes)"
reported_value = 2

[[record]]
molecule = "Cc1nc(-c2ccc(-c3ccc(Cl)c(OC(F)(F)F)c3)o2)[nH]c1-c1ccc(F)cc1"
property = "cytotoxicity cell line H (hepatocytes)"
reported_value = 3

[[record]]
molecule = "Cc1[nH]c(-c2ccc(-c3ccc(OC(F)(F)F)cc3Cl)o2)nc1-c1ccc(F)cc1"
property = "cytotoxicity cell line H (hepatocytes)"
reported_value = 3

[[record]]
molecule = "Cc1nc(-c2ccc(-c3ccccc3OC(F)(F)F)o2)[nH]c1-c1ccccc1Cl"
property = "cytotoxicity cell line H (hepatocytes)"
reported_value = 3

[[record]]
molecule = "Cc1[nH]c(-c2coc(-c3ccccc3C(F)(F)F)c2)nc1-c1ccccc1"
property = "cytotoxicity cell line H (hepatocytes)"
reported_value = 3

[[record]]
molecule = "Cc1nc(-c2ccc(-c3ccccc3C(F)(F)F)o2)[nH]c1-c1ccccc1Cl"
property = "cytotoxicity cell line H (hepatocytes)"
reported_value = 3


Reported Human hepatocytes (HepaRG cells) cytotoxicity cell line H (hepatocytes) for item `CN(C)Cc1[nH]c(-c2ccc(-c3ccccc3C(F)(F)F)o2)nc1-c1ccccc1` was 3

Reported Human hepatocytes (HepaRG cells) cytotoxicity cell line H (hepatocytes) for item `FC(F)(F)Oc1ccccc1-c1ccc(-c2nc(-c3ccccc3Cl)c[nH]2)o1` was 2

Reported Human hepatocytes (HepaRG cells) cytotoxicity cell line H (hepatocytes) for item `Cc1cccc(C)c1-c1ccc(-c2nc(-c3ccccc3)c(C)[nH]2)o1` was 3

* * *

# Test system: Staphylococcus aureus MSSA (Newman)
# experiment: broth microdilution MIC assay, Staphylococcus aureus MSSA (Newman)
# Format: cell-based
# applied-conditions: Staphylococcus aureus, 24 h, read-out: Antibacterial activity Staphylococcus aureus (MSSA)
property: MIC

Below are worked cases with known answers.
[[record]]
compound = "Cc1nc(-c2ccc(-c3cc(C(F)(F)F)cc(C(F)(F)F)c3)o2)[nH]c1-c1ccccc1 [Compound 35]"
property = "MIC"
reported_value = "3 to 10 µg/mL"

[[record]]
compound = "Cc1nc(-c2ccc(-c3ccc(Cl)c(OC(F)(F)F)c3)o2)[nH]c1-c1ccccc1 [Compound 41]"
property = "MIC"
reported_value = "3 to 10 µg/mL"

[[record]]
compound = "Cc1nc(-c2ccc(-c3ccc(F)cc3F)o2)[nH]c1-c1ccccc1 [Compound 147]"
property = "MIC"
reported_value = "1 to 3 µg/mL"

[[record]]
compound = "Cc1[nH]c(-c2ccc(-c3cccc(F)c3C)o2)nc1-c1ccccc1 [Compound 60]"
property = "MIC"
reported_value = "3 to 10 µg/mL"

[[record]]
compound = "Cc1nc(-c2ccc(-c3cccc(Cl)c3)o2)[nH]c1-c1ccccc1 [Compound 4]"
property = "MIC"
reported_value = "1 to 3 µg/mL"

[[record]]
compound = "Cc1nc(-c2ccc(-c3ccc(F)cc3)o2)[nH]c1-c1ccccc1 [Compound 148]"
property = "MIC"
reported_value = "3 to 10 µg/mL"

[[record]]
compound = "Cc1cc(F)ccc1-c1ccc(-c2nc(-c3ccccc3)c(C)[nH]2)o1 [Compound 164]"
property = "MIC"
reported_value = "3 to 10 µg/mL"

[[record]]
compound = "Cc1nc(-c2ccc(-c3cccc(F)c3)o2)[nH]c1-c1ccccc1 [Compound 146]"
property = "MIC"
reported_value = "3 to 10 µg/mL"


Field MIC (entry Cc1[nH]c(-c2ccc(-c3cccc(Cl)c3Cl)o2)nc1-c1ccccc1 [Compound 2] ) reads 20 to 50 µg/mL

Field MIC (entry Cc1nc(-c2ccc(-c3cccc4cc[nH]c34)o2)[nH]c1-c1ccccc1 [Compound 161] ) reads 3 to 10 µg/mL

Field MIC (entry COc1ccc(-c2ccc(-c3nc(C)c(-c4ccccc4)[nH]3)o2)c(C(F)(F)F)c1 [Compound 31] ) reads 3 to 10 µg/mL

Field MIC (entry Cc1nc(-c2ccc(-c3ccc4cc(O)ccc4c3)o2)[nH]c1-c1ccccc1 [Compound 154] ) reads 11 to 201 µg/mL
